tested_system: hNMB-receptor (Homo sapiens)
Sequence (P28336 whole entry): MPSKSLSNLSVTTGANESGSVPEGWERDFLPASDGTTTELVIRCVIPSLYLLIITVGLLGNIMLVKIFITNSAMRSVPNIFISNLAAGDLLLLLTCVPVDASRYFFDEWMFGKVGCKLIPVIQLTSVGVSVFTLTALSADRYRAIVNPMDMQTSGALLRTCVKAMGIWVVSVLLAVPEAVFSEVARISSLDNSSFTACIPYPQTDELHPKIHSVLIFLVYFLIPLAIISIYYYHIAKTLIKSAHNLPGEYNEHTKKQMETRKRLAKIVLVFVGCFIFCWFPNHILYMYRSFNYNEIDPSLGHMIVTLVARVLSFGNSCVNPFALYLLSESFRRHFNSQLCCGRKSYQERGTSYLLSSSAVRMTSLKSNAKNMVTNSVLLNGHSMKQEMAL
method_description: Whole cell radioligand binding, hNMB-receptor transfected Balb 3T3 cells
assay_conditions: IC50 hNMB-R Balb-3T3, hNMB-receptor transfected Balb 3T3 cells; 125I-[D-Tyr0]NMB, 1 h, 22°C; mean ± S.E.
Square brackets hold non-standard residues; d marks the D form. Peptide text beside a SMILES is read from it. Nle = CCCC[C@H](N)C(=O)O; βAla = NCCC(=O)O
metric: IC50 (µM)
Just the number in µM, nothing appended.

Incoming: Determine its reported IC50: CCCCCCNC(=O)[C@H](CC(C)C)NC(=O)[C@H](Cc1cnc[nH]1)NC(=O)CNC(=O)[C@@H](NC(=O)[C@H](C)NC(=O)[C@H](Cc1c[nH]c2ccccc12)NC(=O)[C@H](CCC(N)=O)NC(=O)[C@H](N)Cc1ccccc1)C(C)C [Peptide 15, [D-Phe^6]Bn-(6-13)Hexylamide]
Outgoing: 8.14

Incoming: Could you please provide reported IC50 for CC(C)C[C@H](NC(=O)[C@H](CC(C)C)NC(=O)[C@@H](Cc1c[nH]c2ccccc12)NC(=O)[C@H](Cc1ccccc1)NC(=O)[C@@H](Cc1c[nH]c2ccccc12)NC(=O)[C@H](CCC(N)=O)NC(=O)[C@H](CCC(N)=O)NC(=O)[C@@H]1CCCN1C(=O)[C@H](CCCCN)NC(=O)[C@@H]1CCCN1C(=O)[C@H](N)CCCN=C(N)N)C(N)=O [Peptide 3, [D-Arg^1, D-Trp^7,9, Leu^11]SP] (H-[dR]PKPQQ[dW]F[dW]LL-NH2) ? Thanks!
Outgoing: 4.48

Incoming: Look up IC50 of CCCCCCCNC(=O)[C@H](CC(C)C)NC(=O)[C@H](Cc1c[nH]cn1)NC(=O)CNC(=O)[C@@H](NC(=O)[C@H](C)NC(=O)[C@H](Cc1c[nH]c2ccccc12)NC(=O)[C@H](CCC(N)=O)NC(=O)[C@H](N)Cc1ccccc1)C(C)C [Peptide 16, [D-Phe^6]Bn(6-13)Heptylamide] and report it.
Outgoing: 6.1

Incoming: Provide only the value of recorded IC50 for CSCC[C@H](NC(=O)[C@H](CC(C)C)NC(=O)[C@@H](Cc1ccccc1)NC(=O)CNC(=O)[C@@H](NC(=O)[C@H](C)NC(=O)[C@H](Cc1c[nH]c2ccccc12)NC(=O)[C@H](CCC(N)=O)NC(=O)[C@H](CC(N)=O)NC(=O)CNC(=O)[C@H](Cc1ccc(O)cc1)NC(=O)[C@H](CCCNC(=N)N)NC(=O)[C@H](CCC(N)=O)NC(=O)[C@@H]1CCC(=O)N1)C(C)C)C(N)=O [Peptide 2, [Tyr^4, D-Phe^12]Bn]
Outgoing: 3.09

Incoming: Indicate its recorded IC50; the compound in question is CCCC[C@H](NC(=O)[C@H](Cc1ccccc1)NC(=O)[C@H](Cc1cnc[nH]1)NC(=O)CCNC(=O)[C@@H](NC(=O)[C@H](C)NC(=O)[C@H](Cc1c[nH]c2ccccc12)NC(=O)[C@H](CCC(N)=O)NC(=O)[C@H](N)Cc1ccc(O)cc1)C(C)C)C(N)=O [Peptide 35, reference compound] (H-[dY]QWAV[βAla]HF[Nle]-NH2)
Outgoing: 0.00031

Incoming: Specify measured IC50 for CCCNC(=O)[C@H](CC(C)C)NC(=O)[C@H](Cc1c[nH]cn1)NC(=O)CNC(=O)[C@@H](NC(=O)[C@H](C)NC(=O)[C@H](Cc1c[nH]c2ccccc12)NC(=O)[C@H](CCC(N)=O)NC(=O)[C@H](N)Cc1ccccc1)C(C)C [Peptide 11, [D-Phe^6-Bn](6-13)Propylamide (PA)] .
Outgoing: 2.44

The origin of these recorded values is paper PMC2766550.
